Numbers sourced from the RNAGym collection of RNA variant scans (doi:10.1021/acssynbio.7b00057).

B1: Pistol ribozyme (parent)
chain: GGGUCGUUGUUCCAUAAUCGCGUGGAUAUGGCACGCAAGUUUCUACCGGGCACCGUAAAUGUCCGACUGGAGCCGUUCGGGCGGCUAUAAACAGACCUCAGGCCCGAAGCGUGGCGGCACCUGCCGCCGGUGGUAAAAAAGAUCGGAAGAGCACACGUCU

- Variants of: B1
- Assay overview: aptazyme ON/OFF ratio, guanine; higher = stronger switching; co-transcriptional cleavage with and without guanine
Property: aptazyme ON/OFF ratio
Would you mind answering with just the numeric figure?

U7C U8C G9A U11G = 1.62

Kindly note the recorded aptazyme ON/OFF ratio for U7C U8A G9A U10A U11C C12U C13A , which is 1.09

Entry U7C U8C G9C U10C U11G C12G C13U , aptazyme ON/OFF ratio reported as 1.11

For U7A U8C G9C U10G U11G C12A the variant record lists aptazyme ON/OFF ratio as 1.24

Value of measured aptazyme ON/OFF ratio for the entry U7C U8A G9A U10C C12U C13A : 1.11

So, U7C U8C U10G U11A C12U ? Its aptazyme ON/OFF ratio was 1.12

// sample U7C U10G U11G C13G , its aptazyme ON/OFF ratio was 1.13
